# studyTarget: UniProtKB P70597
# testMethodNotes: Antagonist activity at rat EP1 receptor expressed in African green monkey COS1 cells assessed as inhibition of prostaglandin-E2-induced increase in intracellular calcium level preincubated for 60 secs followed by prostaglandin-E2 addition measured for 60 secs by Fluo 4-AM dye based fluorescence assay
pIC50: −log10 of the molar value.
measuredProperty: pIC50

Known results for compounds:
Cc1cc(C(=O)O)nn1Cc1cc(C(=O)O)cc2sc(N3CC=CCC3)nc12 ... 5.10
O=C(O)c1ccn(Cc2cc(Cl)cc3sc(N4CC=CCC4)nc23)n1 ... 7.29

A = O=C(O)c1ccc(Oc2cc(Cl)cc3sc(N4CC=CCC4)nc23)o1
B = CC1=CCN(c2nc3c(Cn4nc(C(=O)O)cc4C)cc(Cl)cc3s2)CC1
[in] I need your help: which of the pair A , B has higher pIC50? Reply briefly: the label of your chosen item.
[out] B
(B: 7.19, A: 6.82)

###

# studyTarget: Prostaglandin E2 receptor EP1 subtype (Rattus norvegicus)
# testMethodNotes: Antagonist activity at rat EP1 receptor expressed in African green monkey COS1 cells assessed as inhibition of prostaglandin-E2-induced increase in intracellular calcium level preincubated for 60 secs followed by prostaglandin-E2 addition measured for 60 secs by Fluo 4-AM dye based fluorescence assay
measuredProperty: IC50 (nM)

C=C(C)c1nc2c(Cn3nc(C(=O)O)cc3C)cc(Cl)cc2s1 ... 33
CC1=C(C)CN(c2nc3c(Cn4nc(C(=O)O)cc4C)cc(Cl)cc3s2)CC1 ... 5200

P = Cc1cc(C(=O)O)nn1Cc1cc(Cl)cc2sc(C3=CCCCC3)nc12
Q = Cc1cc(C(=O)O)nn1Cc1cc(Cl)cc2sc(N3CCCCC3)nc12
[in] Param pair: P , Q . Output: the one whose IC50 is numerically greater. Which one? Tell me its label.
[out] P
(P: 110 nM, Q: 43 nM)

A = Cc1cc(C(=O)O)nn1Cc1cc(Cl)cc2sc(N(C)C)nc12
B = Cc1cc(C(=O)O)nn1Cc1cccc2sc(N3CC=CCC3)nc12
[in] Higher IC50 between A and B ? Lab note: record the label of whichever item you select.
[out] A
(A: 100 nM, B: 32 nM)

P = O=C(O)c1ccn(Cc2cc(Cl)cc3sc(N4CC=CCC4)nc23)c1
Q = Cc1cc(C(=O)O)nn1Cc1cc(Cl)cc2sc(N3CCCC3)nc12
R = C=Cc1cc(Cn2nc(C(=O)O)cc2C)c2nc(N3CC=CCC3)sc2c1
S = Cc1cc(C(=O)O)nn1Cc1cc(Cl)cc2sc(N3CCS(=O)(=O)CC3)nc12
[in] Sort these molecules on IC50 so the largest reading comes first. Please, when replying, give the labels in the order that was requested.
[out] S, P, Q, R
(S: 4200 nM, P: 240 nM, Q: 30 nM, R: 9.9 nM)

###

# studyTarget: Prostaglandin E2 receptor EP1 subtype (Rattus norvegicus, UniProt P70597)
# Sequence (P70597 whole entry): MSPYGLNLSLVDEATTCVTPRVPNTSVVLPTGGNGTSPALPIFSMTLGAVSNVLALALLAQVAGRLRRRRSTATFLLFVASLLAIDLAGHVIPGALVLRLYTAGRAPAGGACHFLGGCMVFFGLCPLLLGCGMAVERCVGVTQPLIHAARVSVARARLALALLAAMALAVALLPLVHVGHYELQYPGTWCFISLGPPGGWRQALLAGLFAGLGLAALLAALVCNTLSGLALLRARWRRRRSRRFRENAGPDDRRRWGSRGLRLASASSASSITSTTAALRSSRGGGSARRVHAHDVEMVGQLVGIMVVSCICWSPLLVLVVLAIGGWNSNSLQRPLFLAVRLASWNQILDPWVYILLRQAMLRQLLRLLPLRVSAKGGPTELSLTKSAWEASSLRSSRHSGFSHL
# testMethodNotes: Antagonist activity at rat EP1 receptor expressed in African green monkey COS1 cells assessed as inhibition of prostaglandin-E2-induced increase in intracellular calcium level preincubated for 60 secs followed by prostaglandin-E2 addition measured for 60 secs by Fluo 4-AM dye based fluorescence assay
pIC50: −log10 of the molar value.
measuredProperty: pIC50

Consider the following illustrative entries.
Cc1cc(C(=O)O)nn1Cc1cc(Cl)cc2nc(-c3ccccc3)sc12 ... 5.10
Cc1cc(C(=O)O)nn1Cc1cc(F)cc2sc(N3CC=CCC3)nc12 ... 7.77
Cc1cc(C(=O)O)nn1Cc1cc(Cl)cc2oc(-c3ccccc3)nc12 ... 5.06
COc1cc(Cn2nc(C(=O)O)cc2C)c2nc(N3CC=CCC3)sc2c1 ... 7.43

1 = C=C(C)c1cc(Cn2nc(C(=O)O)cc2C)c2nc(N3CC=CCC3)sc2c1
2 = CC1=CCCN(c2nc3c(Cn4nc(C(=O)O)cc4C)cc(Cl)cc3s2)C1
[in] Identify the entry with the larger pIC50. Options: 1 and 2 Your answer should be the label of the entry you select.
[out] 2

a = Cc1cc(C(=O)O)nn1Cc1cc(C#N)cc2sc(N3CC=CCC3)nc12
b = CCN(C)c1nc2c(Cn3nc(C(=O)O)cc3C)cc(Cl)cc2s1
[in] Between the entries labelled a and b , which has a larger pIC50 value on record? Respond using the label that marks the chosen record.
[out] b

P = Cc1cc(C(=O)O)nn1Cc1cc(Cl)cc2sc(N3CC=CCC3)nc12
Q = Cc1cc(C(=O)O)nn1Cc1cc(Cl)cc2sc(N3CC=CC3)nc12
[in] Select one: P or Q . Criterion: greater recorded pIC50. Your answer should be the label attached to the chosen record.
[out] P
(P: 8.96, Q: 6.96)

###

# testMethodNotes: Volume of distribution in rat at 1 mg/kg, iv
# Assay type: ADME, organism-based
# conditionSet: in vivo
measuredProperty: Vd (L/kg)
Give the quantity in L/kg, number only.

[in] Which measured Vd value corresponds to Cc1cc(C(=O)O)nn1Cc1cc(Cl)cc2sc(N3CC=CCC3)nc12 ?
[out] 0.184

###

# studyTarget: UniProt P70597
# testMethodNotes: Antagonist activity at rat EP1 receptor expressed in African green monkey COS1 cells assessed as inhibition of prostaglandin-E2-induced increase in intracellular calcium level preincubated for 60 secs followed by prostaglandin-E2 addition measured for 60 secs by Fluo 4-AM dye based fluorescence assay
measuredProperty: IC50 (nM)

Below are worked cases with known answers.
Cc1cc(C(=O)O)nn1Cc1cc(Cl)cc2sc(C3CCCCC3)nc12 ... 430
Cc1cc(C(=O)O)nn1Cc1cc(N)cc2sc(N3CC=CCC3)nc12 ... 7800

1 = Cc1cc(C(=O)O)nn1Cc1cc(Br)cc2sc(N3CC=CCC3)nc12
2 = Cc1cc(C(=O)O)nn1Cc1cc(Cl)cc2sc(N3CCCCCC3)nc12
3 = O=C(O)c1ccc(Cc2cc(Cl)cc3sc(N4CC=CCC4)nc23)o1
[in] Please produce an ascending ranking of these compounds based on IC50. In plain terms: list the labels in the order you were asked to.
[out] 1, 3, 2
(1: 22 nM, 3: 60 nM, 2: 270 nM)

###

# testMethodNotes: Initial concentration in rat at 1 mg/kg, iv
# Assay type: ADME, organism-based
# conditionSet: in vivo
measuredProperty: C0 (ng/mL)
State just the number; it will be interpreted in ng/mL.

[in] Param item = Cc1cc(C(=O)O)nn1Cc1cc(Cl)cc2sc(N3CC=CCC3)nc12 ; retrieve measured C0.
[out] 6000

###

# testMethodNotes: Total clearance in rat at 1 mg/kg, iv
# Format: ADME, organism-based
# conditionSet: in vivo
measuredProperty: clearance (mL/min/kg)
Write down the numeric answer in mL/min/kg and omit the unit.

[in] Which clearance reading was recorded for the compound Cc1cc(C(=O)O)nn1Cc1cc(Cl)cc2sc(N3CC=CCC3)nc12 ?
[out] 3.79

###

# studyTarget: Prostaglandin E2 receptor EP1 subtype (Rattus norvegicus, UniProt P70597)
# testMethodNotes: Antagonist activity at rat EP1 receptor expressed in African green monkey COS1 cells assessed as inhibition of prostaglandin-E2-induced increase in intracellular calcium level preincubated for 60 secs followed by prostaglandin-E2 addition measured for 60 secs by Fluo 4-AM dye based fluorescence assay
measuredProperty: IC50 (µM)

Past entries and their recorded results:
CCN(CC)c1nc2c(Cn3nc(C(=O)O)cc3C)cc(Cl)cc2s1 ... 0.0062
Cc1cc(C(=O)O)nn1Cc1cc(OC(F)(F)F)cc2sc(N3CC=CCC3)nc12 ... 0.097
Cc1cc(C(=O)O)nn1Cc1cc(Cl)cc2sc(N3CCOCC3)nc12 ... 0.063

P = CCCN(CC)c1nc2c(Cn3nc(C(=O)O)cc3C)cc(Cl)cc2s1
Q = Cc1cc(C(=O)O)nn1Cc1cc(Cl)cc2nc(-c3ccccc3)oc12
R = Cc1cc(Cn2nc(C(=O)O)cc2C)c2nc(N3CC=CCC3)sc2c1
S = CNc1cc(Cn2nc(C(=O)O)cc2C)c2nc(N3CC=CCC3)sc2c1
T = Cc1cc(C(=O)O)nn1Cc1cc(Cl)cc2sc(-c3ccccc3)nc12
[in] I would appreciate it if you could sort these 5 molecules by IC50, starting from the smallest number. Give your ranking as a list of the labels in the requested order.
[out] T, P, Q, R, S
(T: 0.031 µM, P: 0.27 µM, Q: 0.75 µM, R: 2.5 µM, S: 8.8 µM)
